- subject of test: Vascular endothelial growth factor receptor 2 (Homo sapiens)
- protocol: Inhibition of recombinant human VEGFR-2 using poly(Glu4/Tyr) and [gamma32P]ATP as substrate after 1 hr by scintillation counting
test readout: IC50

Examples with answers:
CCN(CC)CCOc1cc2c(Nc3ccc(Br)cc3F)ncnc2cc1OC = 7.45 µM
CCNC(=O)Nc1ccc(Nc2ncnc3cc(OCCN(CC)CC)c(OC)cc23)cc1 = 6.6 µM

Next compound, please.
Ask: Identify measured IC50 corresponding to `COc1cc2ncnc(Oc3ccc(NC(=O)Nc4ccc(Br)cc4)c(C)c3)c2cc1OC`
Reply: 0.04 µM

====

- subject of test: Epidermal growth factor receptor (Homo sapiens, UniProt P00533)
- Sequence (P00533 whole entry): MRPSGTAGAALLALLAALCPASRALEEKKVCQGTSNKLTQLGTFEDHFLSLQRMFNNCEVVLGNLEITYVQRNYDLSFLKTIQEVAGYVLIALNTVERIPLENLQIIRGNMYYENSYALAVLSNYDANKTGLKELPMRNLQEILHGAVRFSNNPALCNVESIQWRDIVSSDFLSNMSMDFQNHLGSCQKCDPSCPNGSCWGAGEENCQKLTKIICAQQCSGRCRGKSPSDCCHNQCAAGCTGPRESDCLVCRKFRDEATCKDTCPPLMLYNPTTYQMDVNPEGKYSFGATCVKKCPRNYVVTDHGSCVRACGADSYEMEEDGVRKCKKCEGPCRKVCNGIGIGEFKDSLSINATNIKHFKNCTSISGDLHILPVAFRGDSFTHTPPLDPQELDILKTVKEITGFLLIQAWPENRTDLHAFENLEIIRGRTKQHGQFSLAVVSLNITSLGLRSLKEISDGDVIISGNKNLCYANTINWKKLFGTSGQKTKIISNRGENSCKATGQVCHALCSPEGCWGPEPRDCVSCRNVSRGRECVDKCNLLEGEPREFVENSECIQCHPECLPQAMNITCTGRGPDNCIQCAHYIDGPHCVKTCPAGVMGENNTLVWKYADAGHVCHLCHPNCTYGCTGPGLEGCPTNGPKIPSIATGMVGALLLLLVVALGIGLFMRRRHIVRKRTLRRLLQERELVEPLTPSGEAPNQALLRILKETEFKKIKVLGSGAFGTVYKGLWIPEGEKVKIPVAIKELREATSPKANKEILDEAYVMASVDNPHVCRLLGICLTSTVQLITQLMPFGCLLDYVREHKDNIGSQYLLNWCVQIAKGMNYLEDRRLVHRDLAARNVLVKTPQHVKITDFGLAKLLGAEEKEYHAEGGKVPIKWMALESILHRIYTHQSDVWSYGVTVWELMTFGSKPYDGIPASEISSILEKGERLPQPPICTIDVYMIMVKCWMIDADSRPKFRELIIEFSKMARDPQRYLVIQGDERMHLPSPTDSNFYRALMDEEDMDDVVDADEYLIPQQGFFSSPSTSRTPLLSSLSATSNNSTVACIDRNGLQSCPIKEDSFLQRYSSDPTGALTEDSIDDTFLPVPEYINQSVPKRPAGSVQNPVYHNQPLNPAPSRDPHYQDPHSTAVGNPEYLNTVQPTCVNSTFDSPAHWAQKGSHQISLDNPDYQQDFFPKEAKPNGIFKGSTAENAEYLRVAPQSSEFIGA
- protocol: Inhibition of human EGFR expressed in human A431 cells using poly(Glu4/Tyr) and [gamma32P]ATP as substrate after 1 hr by scintillation counting
- Set-up: species or system A-431
pIC50: −log10 of the molar value.
Measured pIC50, listed per entry.

CCCCNC(=O)Nc1ccc(Nc2ncnc3cc(OC)c(OC)cc23)cc1 = < 5.00

Ask: Look up pIC50 of `COc1cccc(NC(=O)Nc2ccc(Oc3ncnc4cc(OC)c(OC)cc34)cc2)c1` and report it.
Reply: < 5.00

Ask: Return value of pIC50 for input `CCCCOc1cc2c(Nc3ccc(NC(=O)OCC)c(Cl)c3)ncnc2cc1OCCN(CC)CC` , no commentary.
Reply: 5.04

Ask: Look up and report measured pIC50 for this entry: `CCCCOc1cc2c(Nc3ccc(Br)cc3F)ncnc2cc1OCCN(CC)CC`
Reply: < 5.00

Ask: For the compound `CCN(CC)CCOc1cc2ncnc(Nc3ccc(NC(=O)OC)c(C)c3)c2cc1OC` , report pIC50.
Reply: < 5.00

====

- subject of test: Vascular endothelial growth factor receptor 2 (Homo sapiens, UniProt P35968)
- Sequence (P35968 whole entry): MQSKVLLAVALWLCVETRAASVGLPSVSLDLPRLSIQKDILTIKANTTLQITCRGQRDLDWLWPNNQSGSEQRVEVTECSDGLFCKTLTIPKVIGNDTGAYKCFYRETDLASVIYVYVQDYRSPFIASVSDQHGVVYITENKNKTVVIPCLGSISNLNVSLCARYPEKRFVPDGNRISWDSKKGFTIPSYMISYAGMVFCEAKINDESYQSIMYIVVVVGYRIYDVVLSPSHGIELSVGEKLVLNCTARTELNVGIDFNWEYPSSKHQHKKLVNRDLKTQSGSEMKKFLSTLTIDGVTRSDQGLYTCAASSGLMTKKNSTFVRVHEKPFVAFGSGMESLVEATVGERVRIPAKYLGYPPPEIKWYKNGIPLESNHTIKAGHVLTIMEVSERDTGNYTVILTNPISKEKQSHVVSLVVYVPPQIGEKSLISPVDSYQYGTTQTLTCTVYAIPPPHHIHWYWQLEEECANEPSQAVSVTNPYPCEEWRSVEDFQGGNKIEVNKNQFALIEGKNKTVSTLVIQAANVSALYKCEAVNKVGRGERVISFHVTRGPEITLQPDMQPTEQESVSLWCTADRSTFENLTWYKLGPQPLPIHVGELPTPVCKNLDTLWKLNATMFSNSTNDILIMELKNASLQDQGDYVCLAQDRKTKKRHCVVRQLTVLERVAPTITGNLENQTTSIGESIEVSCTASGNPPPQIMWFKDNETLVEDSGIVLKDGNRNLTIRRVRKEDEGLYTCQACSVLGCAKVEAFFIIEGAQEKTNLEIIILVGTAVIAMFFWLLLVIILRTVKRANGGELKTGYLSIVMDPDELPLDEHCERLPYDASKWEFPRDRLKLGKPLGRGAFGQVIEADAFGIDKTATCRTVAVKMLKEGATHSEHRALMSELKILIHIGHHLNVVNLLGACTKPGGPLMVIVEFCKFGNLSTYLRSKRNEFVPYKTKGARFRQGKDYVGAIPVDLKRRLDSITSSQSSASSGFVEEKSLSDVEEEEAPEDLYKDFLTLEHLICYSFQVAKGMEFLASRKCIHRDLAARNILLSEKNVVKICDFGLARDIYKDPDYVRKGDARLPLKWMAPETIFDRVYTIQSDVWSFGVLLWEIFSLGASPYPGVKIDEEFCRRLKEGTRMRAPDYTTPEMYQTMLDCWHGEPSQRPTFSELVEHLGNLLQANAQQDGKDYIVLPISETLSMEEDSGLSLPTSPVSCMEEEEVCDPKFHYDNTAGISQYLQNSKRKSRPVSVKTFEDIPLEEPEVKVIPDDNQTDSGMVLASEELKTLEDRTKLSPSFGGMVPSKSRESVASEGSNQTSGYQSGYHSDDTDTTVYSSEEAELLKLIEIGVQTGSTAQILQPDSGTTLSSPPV
- protocol: Inhibition of recombinant human VEGFR-2 using poly(Glu4/Tyr) and [gamma32P]ATP as substrate after 1 hr by scintillation counting
The entries below are paired with their reported log10 IC50.
Annotation: log10 of IC50, µM basis.

COc1cc2ncnc(Oc3ccc(F)c(Cl)c3)c2cc1OC = 0.99
COc1cc2ncnc(Oc3ccc(NC(=O)Nc4cccc(Br)c4)cc3)c2cc1OC = -2.22
CCN(CC)CCOc1cc2ncnc(Nc3ccc(C)c(Br)c3)c2cc1OC = 0.81
CCOC(=O)Nc1ccc(Nc2ncnc3cc(OCCN(CC)CC)c(OC)cc23)cc1Cl = 0.53
CCNC(=O)Nc1ccc(Nc2ncnc3cc(OC)c(OC)cc23)cc1 = 0.67

Ask: Name the recorded log10 IC50 of the item `CCN(CC)CCOc1cc2ncnc(Nc3ccc(NC(=O)OC)c(C)c3)c2cc1OC` in your answer.
Reply: 0.84

Ask: Given `COc1cc2ncnc(Nc3ccccc3)c2cc1OC` , respond with its log10 IC50.
Reply: 0.85

====

Let's look at some molecules and their measured IC50.
- subject of test: Epidermal growth factor receptor (Homo sapiens, UniProt P00533)
- protocol: Inhibition of human EGFR expressed in human A431 cells using poly(Glu4/Tyr) and [gamma32P]ATP as substrate after 1 hr by scintillation counting

CCN(CC)CCOc1cc2c(Nc3ccc(Br)cc3F)ncnc2cc1OC = 9.1 µM
COc1cc2ncnc(Nc3ccc(NC(=O)OC(C)C)c(C)c3)c2cc1OC = 5.8 µM
COc1cc2ncnc(Nc3ccc(Br)cc3)c2cc1OC = 3.6 µM
CCN(CC)CCOc1cc2ncnc(Nc3ccc(Br)cc3F)c2cc1OC = > 10 µM
CCN(CC)CCOc1cc2ncnc(Nc3ccc(C)c(Br)c3)c2cc1OC = 9.45 µM
CCNC(=O)Nc1ccc(Nc2ncnc3cc(OC)c(OC)cc23)cc1 = > 10 µM
CCCCOc1cc2c(Nc3ccc(NC(=O)OC)c(Cl)c3)ncnc2cc1OCCN(CC)CC = > 10 µM
CCNC(=O)Nc1ccc(Nc2ncnc3cc(OCCN(CC)CC)c(OC)cc23)cc1 = > 10 µM

Would you kindly look at the next entry?
Ask: Give me measured IC50, please, for this molecule: `COc1cc2ncnc(Oc3ccc(NC(=O)Nc4ccc(F)c(Cl)c4)c(C)c3)c2cc1OC`
Reply: > 10 µM
